# RUN DESCRIPTION: amyloid nucleation score (Sup35N fusion, yeast selection) (log enrichment); library NNK2; higher = more nucleation; inactive = no reads after selection;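 further: zero at mode of non-aggregating sequences after 7 days selection at 30°C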
amyloid nucleation score reference
The answer should be written as a number, with no unit following it.

Which amyloid nucleation score value is on record for `VLECFFVA` ? 0.183

Which amyloid nucleation score value is on record for `TRTNEVSGNAESKNCRCYIG` ? 0.404

Which amyloid nucleation score value is on record for `RKCSGNAMRSLCSDPVRCVK` ? 0.669

Which amyloid nucleation score value is on record for `AFRDRWLKRMKLTYVVGCIN` ? -0.17

* * *

# RUN DESCRIPTION: amyloid nucleation score (Sup35N fusion, yeast selection) (log enrichment); library NNK1; higher = more nucleation; inactive = no reads after selection
amyloid nucleation score reference
The answer should be written as a number, with no unit following it.

Which amyloid nucleation score value is on record for `RVLRQMKSIC` ? -0.44

Which amyloid nucleation score value is on record for `RVLDLKWPCYMGSVNLASRR` ? 0.016

Which amyloid nucleation score value is on record for `SMDLLRDLSVDKWAFF` ? 0.133

* * *

# RUN DESCRIPTION: amyloid nucleation score (Sup35N fusion, yeast selection) (log enrichment); library NNK2; higher = more nucleation; inactive = no reads after selection
OBSERVED PROPERTY: amyloid nucleation score
The answer should be written as a number, with no unit following it.

NIRNRSVNDLIRRDAYRLAL : -0.175
LHGVSAIMLGTIGARVN : -0.125
YKNVFHNCILADSSVYWNTH : 5.76
MRYYWMWHKVVM : 0.069
DLGHLTLISKFKFNESSAEH : -0.221

Which amyloid nucleation score value is on record for `NFNVQKIFNGDCDLVWRGFV` ? -1.31

Which amyloid nucleation score value is on record for `IACYMMGLRLL` ? -0.414

* * *

# RUN DESCRIPTION: amyloid nucleation score (Sup35N fusion, yeast selection) (log enrichment); library NNK2; higher = more nucleation; inactive = no reads after selection
amyloid nucleation score reference
The answer should be written as a number, with no unit following it.

Worked cases, amyloid nucleation score given:
FYLNRKRVYLSDGCRAFR : 0.252
CASEVDNNSPPRWVRRTAGV : 0.777
APHSLVVGCTVVLF : 7.59
IIIIATEHK : 3.48
EMVRTTMSWPYMFS : -0.47

Which amyloid nucleation score value is on record for `LFMFGFGIL` ? 0.05

Which amyloid nucleation score value is on record for `WSSTVKSVKSAGAP` ? 0.475

* * *

# RUN DESCRIPTION: amyloid nucleation score (Sup35N fusion, yeast selection) (log enrichment); library NNK2; higher = more nucleation; inactive = no reads after selection
The label depends only on amyloid nucleation score: met if it is at least -0.1, not met if it is smaller.

LCQNKTMTIGRFKIGHKWYP : met

For this substance, is measured amyloid nucleation score -0.1 or higher? `RTYEMVIKFSGSLVRAFRVL` met

For this substance, is measured amyloid nucleation score -0.1 or higher? `SILNDESFILLDILMVHFEY` not met

* * *

# RUN DESCRIPTION: amyloid nucleation score (Sup35N fusion, yeast selection) (log enrichment); library NNK2; higher = more nucleation; inactive = no reads after selection
The label depends only on amyloid nucleation score: yes (1) if it is at least 0.9, no (0) if it is smaller.

Here's what some known entries look like.
CPCYCLTSFACLGNSVPTWR : yes (1)
SSEEFNVCYYGDPYKSVRTR : no (0)

For this substance, is measured amyloid nucleation score 0.9 or higher? `PMISKVCHILKRVEPSWGMR` no (0)

For this substance, is measured amyloid nucleation score 0.9 or higher? `NLFNLSCHGLLNERKHLSGV` no (0)

For this substance, is measured amyloid nucleation score 0.9 or higher? `MRMGMLKMTFFGCSPDLKRL` no (0)

For this substance, is measured amyloid nucleation score 0.9 or higher? `PLWPSNSD` no (0)

For this substance, is measured amyloid nucleation score 0.9 or higher? `RMFDYDSGGNNRICYDYYAN` no (0)

For this substance, is measured amyloid nucleation score 0.9 or higher? `IHRGFILADTLHHYCSGLLI` no (0)

For this substance, is measured amyloid nucleation score 0.9 or higher? `RESYMLSYGKILNACQCIVG` yes (1)

For this substance, is measured amyloid nucleation score 0.9 or higher? `GGYDGVSQMCHFEITWNWMT` yes (1)

For this substance, is measured amyloid nucleation score 0.9 or higher? `FFYFTMWNKHFEFVYNSSPC` no (0)

For this substance, is measured amyloid nucleation score 0.9 or higher? `YFYNGSRA` no (0)

For this substance, is measured amyloid nucleation score 0.9 or higher? `GHLRVFGVAKKLSTIMNLAR` no (0)

For this substance, is measured amyloid nucleation score 0.9 or higher? `CALGDATFNVWYMLS` yes (1)
